Assay: physchem
Type: physicochemical
# logP per record follows

Sample answers from the record:
{"compound": "Cc1nc(C(F)(F)F)ccc1C(=O)Nc1ccc(Cl)c(C(=O)NC2CC2)c1", "assay-value": "2.27^a)"}
{"compound": "Cn1nc(C(F)(F)F)c(C(F)(F)F)c1C(=O)Nc1ccc(Cl)c(C(=O)NCC=CCl)c1", "assay-value": "3.28^a)"}
{"compound": "Cn1nc(C(F)(F)C(F)(F)F)c(C(F)(F)F)c1C(=O)Nc1ccc(F)c(C(=O)NCC(F)(F)F)c1", "assay-value": "3.66^a)"}
{"compound": "O=C(NC1CC1)c1cc(NC(=O)c2c(C(F)(F)F)c(C(F)(F)C(F)(F)F)nn2-c2ccccc2)ccc1Cl", "assay-value": "4.00^a)"}
{"compound": "Cn1nc(C(F)(F)C(F)(F)F)c(C(F)(F)F)c1C(=O)Nc1cc(C(=O)NCC(F)(F)F)c(F)cc1Cl", "assay-value": "3.83^a)"}

// logP value for `Cn1nc(C(F)(F)C(F)(F)F)c(C(F)(F)F)c1C(=O)Nc1cc(F)c(F)c(C(=O)NCC(F)(F)F)c1` : 3.89^a)

Kindly note the recorded logP for CC(NC(=O)c1cc(NC(=O)c2c(C(F)(F)F)c(C(F)(F)C(F)(F)F)nn2C)ccc1Br)C(F)(F)F (stereo not drawn) , which is 3.95^a)

So for `CCN(C(=O)c1c(C(F)(F)F)c(C(F)(F)C(F)(F)F)nn1C)c1ccc(Cl)c(C(=O)NC2CC2)c1` , the logged logP turned out to be 3.55^a)

logP recorded for this compound, `O=C(NCc1ccccc1)c1cc(NC(=O)c2cnc(C(F)(F)C(F)(F)F)nc2C(F)(F)F)ccc1Cl` , is 3.78^a)

According to the records, this compound `Cn1nc(C(F)(F)C(F)(F)F)c(C(F)(F)F)c1C(=O)Nc1ccc(OC(F)F)c(C(=O)O)c1` displays logP of 3.23^a)

The compound identified as Cn1nc(C(F)(F)F)c(Cl)c1C(=O)Nc1ccc(Cl)c(C(=O)NC2CC2F)c1 (stereo not drawn) registered its logP at 2.86^a)

logP reading for `Cn1nc(C(F)(F)C(F)(F)F)c(C(F)(F)F)c1C(=O)Nc1cc(C(=O)NCC(F)(F)F)c(Cl)cc1F` : 3.73^a)

# logP of `Cn1nc(C(F)(F)C(F)(F)F)c(C(F)(F)F)c1C(=O)Nc1cc(C#N)c(Cl)c(C(=O)NC2CC2)c1` = 3.40^a)

// logP value for `CSc1c(Br)cc(NC(=O)c2c(C(F)(F)F)c(C(F)(F)C(F)(F)F)nn2C)cc1C(=O)NCC(F)(F)F` : 4.22^a)

So, `Cc1nc(C(F)(F)C(F)(F)F)nc(C)c1C(=O)Nc1ccc(Cl)c(C(=O)NCC(F)(F)F)c1` ? Its logP was 3.22^a)

Reported logP of `Cn1nc(C(F)(F)C(F)(F)F)c(C(F)(F)F)c1C(=O)Nc1cc(C(=O)NCC(F)(F)F)c(Cl)cc1Cl` : 3.97^a)

Reported logP ( `Cn1nc(C(F)(F)C(F)(F)F)c(C(F)(F)F)c1C(=O)Nc1cc(Br)c(Br)c(C(=O)NC2CC2)c1` ) = 3.84^a)

The compound identified as `Cc1nc(C(F)(F)C(F)(F)F)nc(C)c1C(=O)Nc1ccc(Cl)c(C(=O)NCc2ccccc2)c1` registered its logP at 3.49^a)

response.value for Cn1nc(C(F)(F)C(F)(F)F)c(C(F)(F)F)c1C(=O)Nc1cc(C(=O)NC2CC2F)c(Cl)cn1 (stereo not drawn) (field: logP) = 3.14^a)

The measured logP associated with CC(NC(=O)c1cc(NC(=O)c2c(Br)c(C(F)(F)F)nn2C)ccc1Cl)C(F)(F)F (stereo not drawn) reads 3.40^a)

Lab note: `Cn1nc(C(F)(F)C(F)(F)F)c(C(F)(F)F)c1C(=O)Nc1cc(F)c(I)c(C(=O)NCc2ccccc2)c1` gave logP of 4.20^a)

// field: logP; key: CC(NC(=O)c1cc(NC(=O)c2c(C(F)(F)F)c(C(F)(F)C(F)(F)F)nn2C)ccc1F)C(F)(F)F (stereo not drawn) ; value = 3.89^a)

For reference, reported logP for `Cc1nc(C(F)(F)C(F)(F)F)ncc1C(=O)Nc1ccc(Cl)c(C(=O)NC2CC2)c1` stands at 2.76^a)

In plain terms, `CC(C)NC(=O)c1cccc(NC(=O)c2c(C(F)(F)F)c(C(F)(F)C(F)(F)F)nn2C)c1Cl` has a documented logP of 3.47^a)

Documented logP of `Cn1nc(C(F)(F)C(F)(F)F)c(C(F)(F)F)c1C(=O)Nc1cc(Br)c(I)c(C(=O)NCc2ccccc2)c1` : 4.49^a)

The reported value for `O=C(NC1CC1)c1cc(NC(=O)c2[nH]nc(C(F)(F)C(F)(F)F)c2C(F)(F)F)ccc1Cl` in terms of logP is 2.95^a)

Note to self: logP recorded for `O=C(NCC=CCl)c1cc(NC(=O)c2cnc(C(F)(F)C(F)(F)F)nc2C(F)(F)F)ccc1Cl` was 3.59^a)
